Tested on: OVCAR-4 ovarian
Assay: NCI-60 one-dose screen, 48 h (100 = growth as untreated, 0 = no growth, -100 = all killed)
Settings: 10 µM unless noted
Compounds without any hit were thinned out: in the full panel of roughly 83,000, 20% have a hit.
Observable: growth (%)
Express it in %; write the number only.

Query string: Entry NC1N=C(SCC(=O)N2CCN(c3cc4c(cc3F)c(=O)c(C(=O)O)cn4C3CC3)CC2)NC(=O)/C1=C/c1ccc(Cl)cc1 (stereo not given) : reported growth = ?
Result string: 99.5

Query string: For the molecule shown here, `Cc1ccc(C(=O)NCCCNc2nccc(-n3ccc4cccnc43)n2)cc1` , give the reported growth.
Result string: 96.3

Query string: Item `CN(C[C@H]1Cc2c(cccc2N2CCN(c3ncccn3)CC2)CN1)[C@H]1CCCc2cccnc21` has what recorded growth?
Result string: 52.9

Query string: Given the entry `COc1ccccc1CNCCCN1C(=O)c2ccc3c4c(ccc(c24)C1=O)C(=O)N(CCCNCCCCNCCCN)C3=O` , report its measured growth.
Result string: -73.8

Query string: Param item = `O=C(NNC(=O)N1c2ccccc2C=Cc2ccccc21)c1ccc2ccccc2c1` ; retrieve measured growth.
Result string: 91.8

Query string: // returns reported growth for input `N/C(=N\C(N)=N\c1nc2ccccc2s1)c1cccc(Br)c1`
Result string: 107

Query string: Would you mind telling me what growth value was observed for `S=C1CC(=S)NC(=S)N1` ?
Result string: 99

Query string: Look up growth: `O=C1NC(=C(Cl)Cl)/C(=N/S(=O)(=O)N2CCC(C3(C(F)(F)F)N=N3)CC2)N1`
Result string: 98.1

Query string: Quick one: growth of `Nc1nc(-c2ccccc2)c(CCCOc2ccc(NC(=O)CBr)cc2)c(=O)[nH]1` ?
Result string: 92.1

Query string: What value of growth has been reported for the following molecule? `CCN(CC)CCCNc1nccc2ccc(Cl)cc12`
Result string: 108

---

Listed compounds paired with reported growth
System: OVCAR-5 ovarian
Test: NCI-60 one-dose screen, 48 h (100 = growth as untreated, 0 = no growth, -100 = all killed)
Details: 10 µM unless noted
Procedure: Growth inhibition of the OVCAR-5 human tumor cell line is measured as a screen for anti-cancer activity. Cells are grown in 96 well plates and exposed to the test compound for 48 hours. Compounds are tested at a single concentration, which is 10^-5 M for most compounds. The reported endpoint is percent growth (GI% or GIPRCNT), where numbers from 0 - 100% represent growth inhibition, and numbers from -100% - 0 represent cell death. For example, a value of 40 represents 60% growth inhibition. […]
This is part of a sample that, as a whole, favours compounds with a hit. Of some 83,000 tested, about 20% had one in any assay.
Express it in %; write the number only.

COc1cc(-c2nn(-c3cccc(NC(=O)c4cccc(C(F)(F)F)c4)c3)cc2-c2ccncc2)ccc1Cl = 49.3
COc1cc(C(=O)/C=C/c2ccc3nc(-c4cc(F)cc(F)c4)sc3c2)cc(OC)c1OC = 97.1
CC(=O)Nc1ccc(S(=O)(=O)n2ccc(-c3ccc4c(c3)CCC(C)(C)O4)n2)cc1 = 96.3
N[C@@H]1CCN(C(=O)c2cc3cc(Cl)c(F)c(F)c3[nH]2)C1 = 90.3

--- query ---
Query string: Endpoint output: growth of `COc1cc(-c2nn(-c3cccc(NC(=O)Nc4cccc(C(F)(F)F)c4)c3)cc2-c2ccncc2)ccc1Cl` . Value?
Result string: 28.2

---

System: SF-268 CNS
Test: NCI-60 one-dose screen, 48 h
Conditions: 10 µM unless noted
The panel holds about 83,000 compounds, 20% with a hit somewhere; the sample as a whole holds those more often. Calls of active or inactive are those of the source. How the source made its calls: active means growth percent below 10; inactive means the rest.
Outcomes you can answer with include only these: Y = active, N = inactive

Query string: Recorded test outcome, item `Cc1cccc(/C=N/Nc2cc(C)c3cccc(C)c3n2)n1`
Result string: N

Query string: For this compound, state the assay outcome: `Cn1cnc2c(N3CCN(C(=O)OCc4ccc5c(Cl)cc(Cl)c(O)c5n4)CC3)nc(Cl)nc21`
Result string: N

Query string: Hey, what did the test say about C=C1CCC2C(C)(CO)C(O)CCC2(C)C1C/C=C1/C(=O)OCC1Oc1ccccc1C (stereo not given) ?
Result string: N

---

Test system: BT-549 breast
Experiment: NCI-60 one-dose screen, 48 h (100 = growth as untreated, 0 = no growth, -100 = all killed)
Conditions: 10 µM unless noted
Procedure: Growth inhibition of the BT-549 human tumor cell line is measured as a screen for anti-cancer activity. Cells are grown in 96 well plates and exposed to the test compound for 48 hours. Compounds are tested at a single concentration, which is 10^-5 M for most compounds. The reported endpoint is percent growth (GI% or GIPRCNT), where numbers from 0 - 100% represent growth inhibition, and numbers from -100% - 0 represent cell death. For example, a value of 40 represents 60% growth inhibition. […]
This is part of a sample that, as a whole, favours compounds with a hit. Of some 83,000 tested, about 20% had one in any assay.
Observable: growth (%)
Return type: number; implicit unit %.

Some solved cases for reference:
NC1=NN(O)C2=CC([N+](=O)[O-])C=CC2=N1 (stereo unspecified) = 104
Clc1ccc(-c2nc3ccccc3s2)cc1Cl = 97.4
N#Cc1c(Nc2ccccc2)nc2n(c1=O)-c1ccccc1Sc1ccccc1-2 = 82.3
COc1ccc(/C=C2\CN(Cc3cn(CCNc4ccnc5cc(Cl)ccc45)nn3)C/C(=C\c3ccc(OC)c(OC)c3)C2=O)cc1OC = -31.6
COC(=O)c1cc2cc(-c3ccc(OC)cc3)cnc2[nH]1 = 18.6
C=C[C@@H]1C[C@H](O)Cc2c(C)cc(C)cc2N1 = 96.4
COc1ccc(/C=C(\C#N)c2cc(OC)c3c(c2)OCO3)cc1 = 30.9
Cc1ccc(CSC(=N)N)cc1C = 98.1
CCN(CC)CCCNc1nccc2ccc(Cl)cc12 = 92.8
COc1ccc(Nc2nn3c(C)cc(C)nc3c2C(=O)Nc2ccc(C)cc2)c(OC)c1 = 96.2

Query string: # growth lookup, item `CCn1c2ccccc2c2cc(NC(=O)Nc3ccc([N+](=O)[O-])cc3C)ccc21`
Result string: 79.2

Query string: Item under review: `CN(C[C@H]1Cc2c(cccc2N2CCN(c3ncccn3)CC2)CN1)[C@H]1CCCc2cccnc21` . Reported growth?
Result string: 56.9

Query string: Could you tell me which growth is on file for `C=C(C)[C@@H]1CC[C@]2(C(=O)N3CCNCC3)CC[C@]3(C)[C@H](CC[C@@H]4[C@@]5(C)C/C(=C/c6ccncc6)C(=O)C(C)(C)[C@@H]5CC[C@]43C)[C@@H]12` ?
Result string: 105

Query string: Dear colleague, I am looking for the recorded growth of the following compound: `COc1cc(/C=C/C(=O)/C=C/c2cc(OC)c3c(c2)OCO3)cc2c1OCO2`
Result string: 84.3

Query string: Data request, read-out growth, for `CCCCN(CCCC)C(=N)c1ccnc2ccccc12`
Result string: 120

Query string: Query: growth; subject: `Cc1c(C(=N)C(C#N)C#N)c(=N)oc2c1ccc1ccccc12`
Result string: 73.9

Query string: Param item = `NNc1cccc(/C=C/c2ccccc2)cc1=O` ; retrieve measured growth.
Result string: 69.1

Query string: So what does the record say about growth for `c1ccc(Nc2nc(Nc3ccccc3)nc(Nc3ccccc3)n2)cc1` ?
Result string: 114

Query string: For the compound `COc1ccc(-c2nc(N3CCCC3=O)sc2Br)cc1OC` , what growth is on record?
Result string: 93.2

Query string: Item `COc1cc(C(=O)/C=C/c2ccc3nc(-c4cc(F)cc(F)c4)sc3c2)cc(OC)c1OC` has what recorded growth?
Result string: 95.3

Query string: Look at this compound and give its reported growth. `O=C1NC(=C(Cl)Cl)/C(=N/S(=O)(=O)N2CCC(C3(C(F)(F)F)N=N3)CC2)N1`
Result string: 99.4

---

System: NCI-H322M lung
Test: NCI-60 one-dose screen, 48 h (100 = growth as untreated, 0 = no growth, -100 = all killed)
Details: 10 µM unless noted
The panel holds about 83,000 compounds, 20% with a hit somewhere; the sample as a whole holds those more often. The source made the active and inactive calls. How the source made its calls: active means growth percent below 10; inactive means the rest.
Observable: growth

Query string: Recorded growth for `Fc1ccccc1-c1nc(-c2nc3cc(Cl)c(Cl)cc3[nH]2)c2ccccn12` , please?
Result string: 67.8% (inactive)

Query string: Request the reported growth associated with `COc1ccc(-c2nc3sc(-c4cc(OC)c(OC)c(OC)c4)nn3c2/C=C2/C(=O)Nc3ccc(F)cc32)cc1`
Result string: -59.4% (active)

Query string: # input compound: `CN1C=CN(Cc2ccc(-c3ccccn3)nc2)[CH-]1.CN1C=CN(Cc2ccc(-c3ccccn3)nc2)[CH-]1.[Au+3]` ; wanted: its growth
Result string: -3% (active)

Query string: State the recorded growth for this entry: `CC(C)(C)n1cc(-c2ccnc(NCCCNS(=O)(=O)c3ccc(Cl)cc3)c2)c(-c2cccc(O)c2)n1`
Result string: 10.6% (inactive)

Query string: I'd like to know its growth. The compound in question is `COc1cc(/C=C/C(=O)c2ccc(Nc3ncnc4cc(OC)c(OC)cc34)cc2)cc(OC)c1`
Result string: 105% (inactive)

Query string: Param item = `COc1cc2c(=O)n(C3CCCCCC3)c3c4cc[nH]c4ncc3c2cc1OC` ; retrieve measured growth.
Result string: 89.2% (inactive)

Query string: Quick one: growth of `COc1ccc(C(=O)N2NC(=O)/C(=C/c3cn(-c4ccccc4)nc3-c3ccccc3)N=C2c2ccccc2)cc1` ?
Result string: 97.3% (inactive)

Query string: Look up growth: `NC(N)=N/N=C/c1ccc(-c2ccc(-c3cc(Cl)cc(Cl)c3)s2)cc1`
Result string: 72.6% (inactive)

Query string: Given `COc1cc(Nc2nc(N[C@H]3CCCC[C@@H]3N)nc3cc[nH]c(=O)c23)cc(OC)c1` , state its recorded growth.
Result string: 9.42% (active)

FYI, the data here is from PubChem BioAssay (NCI).
